Target: human PAR-1 (Homo sapiens)
Construct: expressed in transfected cells; host or cells: CHO-K1 (transformant flag/trn/CHO-K1)
Sequence (P25116 22-425): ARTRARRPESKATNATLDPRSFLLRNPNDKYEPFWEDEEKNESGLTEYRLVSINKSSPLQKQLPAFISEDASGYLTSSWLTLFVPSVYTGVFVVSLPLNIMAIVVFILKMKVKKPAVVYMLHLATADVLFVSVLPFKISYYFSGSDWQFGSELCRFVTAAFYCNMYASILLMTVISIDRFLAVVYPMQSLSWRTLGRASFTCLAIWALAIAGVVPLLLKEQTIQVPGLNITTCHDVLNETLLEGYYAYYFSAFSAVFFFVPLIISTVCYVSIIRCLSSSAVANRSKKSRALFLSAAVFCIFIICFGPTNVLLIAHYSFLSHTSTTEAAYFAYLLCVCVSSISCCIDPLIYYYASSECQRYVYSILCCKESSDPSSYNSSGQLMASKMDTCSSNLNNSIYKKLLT
Assay: Evaluation of PAR-1 antagonistic action by intracellular calcium concentration variation assay (FLIPR)
Format: cell-based
Details: human PAR-1-expressing CHO cells, agonist peptide SFLLRN-NH2 final concentration 0.3 nM, Fluo-3AM
Description: Evaluation of PAR-1 Antagonistic Action of Compound by Intracellular Calcium Concentration Variation Assay Human PAR-1-expressing cells was plated at 3×10^4 cells/well on a 96 well clear bottom plate (Corning 3904 type) and cultured for 16-24 hr. […] The plate was moved to a fluorometry image-plate reader (FLIPR-1, manufactured by Molecular Devices). […] The intracellular calcium concentration was measured by FLIPR.
Measured Property: pIC50
Answer as the number alone; pIC50 is minus log10 of concentration in mol/L.

Compound | pIC50
CCNC(=O)c1ccc(-n2nnc(C(=O)NC3CC3)c2Cc2ccccc2)cc1 | 5.89

IN: Reported pIC50, compound CCNC(=O)c1ccc(-n2nnc(C(=O)NC3CC3)c2COc2cccc(Cl)n2)cc1 : ____
OUT: 5.85

IN: Proceed to CCNC(=O)c1ccc(-n2nnc(C(=O)NC3CC3)c2CC2CCCC2)cc1
OUT: 6.11

IN: Proceed to CCNC(=O)c1ccc(-n2nnc(C(=O)NC3CC3)c2CCCc2ccccc2)cc1
OUT: 6.15

IN: Proceed to CCCc1c(C(=O)NC2CCCc3ccccc32)nnn1-c1ccc(C(=O)NCC)cc1 (centres unmarked)
OUT: 6.17

IN: Proceed to CCCc1c(C(=O)NCc2cnc(C)cn2)nnn1-c1ccc(C(=O)NCC)cc1
OUT: 5.44

IN: Proceed to CCCc1c(C(=O)NCC2CCCO2)nnn1-c1ccc(C(=O)NCC)cc1 (centres unmarked)
OUT: 5.72

IN: Proceed to CCNC(=O)c1ccc(-n2nnc(C(=O)NC3CC3)c2/C=C/c2ccccc2)cc1
OUT: 6.40
